This collection of values is drawn from paper PMC7412453.

test system: L. amazoniensis promastigotes; assay: Leishmanicidal activity against L. amazoniensis promastigotes (XTT); details: Leishmania amazonensis, 72 h, read-out: L. amazoniensis IC50
IC50 strictly under 30 µM means Met; at 30 µM or over means Not met.

1) COc1ccc2c(c1)-c1cc(COC(=O)C(C)(C)C)ccc1C(C)(C)O2; Met
2) COc1ccc2c(c1)-c1cc(CNCCC(C)C)ccc1C(C)(C)O2; Met
3) COc1ccc2c(c1)-c1cc(COC(C)=O)ccc1C(C)(C)O2; Met
4) CCCCCC(=O)OCc1ccc2c(c1)-c1cc(OC)ccc1OC2(C)C; Not met
5) COC(=O)c1ccc2c(c1)-c1cc(OC)ccc1OC2(C)C; Not met
